test system: HEK-293T; test: Multiplex assay against HEK293T; format: toxicity, cell-based; settings: human, 48 h, 10 µM, compound concentration 10 uM, replicate 1;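 also: share of the cells with healthy nuclei that show this phenotype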
MEASUREMENT NAME: Population Tubulin-Different-Phenotype (%)
All answers are understood in %, so give the number only.

Data point: "CC(C)[C@H](CO)Nc1nc(Nc2cccc(Cl)c2)c2ncn(C(C)C)c2n1" ; Population Tubulin-Different-Phenotype (%) = 99

Data point: "C[C@@H](Oc1cc(-n2cnc3ccc(CN4CCN(C)CC4)cc32)sc1C(N)=O)c1ccccc1C(F)(F)F" ; Population Tubulin-Different-Phenotype (%) = 55

Data point: "C=CC(=O)Nc1cc(-n2c(=O)ccc3cnc4ccc(-c5ccc(NS(C)(=O)=O)cc5)cc4c32)ccc1C" ; Population Tubulin-Different-Phenotype (%) = 45

Data point: "Oc1cccc(-c2nc(N3CCOCC3)c3oc4ncccc4c3n2)c1" ; Population Tubulin-Different-Phenotype (%) = 84

Data point: "CN1CCN(Cc2ccc(-c3cnc4[nH]cc(-c5ccc6[nH]ccc6c5)c4c3)cc2)CC1" ; Population Tubulin-Different-Phenotype (%) = 80
